# protocolDetails: Phase 1/1b clinical trial: plasma pharmacokinetics of PF-07220060
# Assay type: in vivo, human
# assayContext: human, plasma, po, 400 mg, 400 mg BID oral monotherapy (Part 1A); C1D1 post first dose; median; read-out: Tmax
parameterMeasured: Tmax (h)
Give just the number in h; leave the unit off.

Request the reported Tmax associated with CC(C)n1c(C(C)(C)O)nc2c(F)cc(-c3nc(N[C@@H]4CCOC[C@H]4O)ncc3Cl)cc21 [PF-07220060]
2.1

====

# protocolDetails: Phase 1/1b clinical trial: plasma pharmacokinetics of PF-07220060
# Assay type: in vivo, human
# assayContext: human, plasma, po, 500 mg, 500 mg BID oral monotherapy (Part 1A); C1D1 post first dose; geometric mean
parameterMeasured: Cmax (ng/mL)
Give just the number in ng/mL; leave the unit off.

Request the reported Cmax associated with `CC(C)n1c(C(C)(C)O)nc2c(F)cc(-c3nc(N[C@@H]4CCOC[C@H]4O)ncc3Cl)cc21`
637

====

# protocolDetails: Phase 1/1b clinical trial: plasma pharmacokinetics of PF-07220060
# Type: in vivo, human
# assayContext: human, plasma, po, 400 mg, 400 mg BID oral monotherapy (Part 1A); C1D15; arithmetic mean, n = 2
parameterMeasured: half-life (h)
Give just the number in h; leave the unit off.

Request the reported half-life associated with `CC(C)n1c(C(C)(C)O)nc2c(F)cc(-c3nc(N[C@@H]4CCOC[C@H]4O)ncc3Cl)cc21`
6.6

====

# protocolDetails: Phase 1/1b clinical trial: plasma pharmacokinetics of PF-07220060
# Assay type: in vivo, human
# assayContext: human, plasma, po, 300 mg, 300 mg BID oral monotherapy (Part 1A); C1D15; geometric mean; read-out: AUCtau
parameterMeasured: AUC (ng·h/mL)
Give just the number in ng·h/mL; leave the unit off.

Request the reported AUC associated with `CC(C)n1c(C(C)(C)O)nc2c(F)cc(-c3nc(N[C@@H]4CCOC[C@H]4O)ncc3Cl)cc21`
8100

====

# protocolDetails: Phase 1/1b clinical trial: plasma pharmacokinetics of PF-07220060
# Type: in vivo, human
# assayContext: human, plasma, po, 400 mg BID, 400 mg BID oral + fulvestrant (Part 1C); C1D15 post multiple doses; median; read-out: Tmax
parameterMeasured: Tmax (h)
Give just the number in h; leave the unit off.

Request the reported Tmax associated with `CC(C)n1c(C(C)(C)O)nc2c(F)cc(-c3nc(N[C@@H]4CCOC[C@H]4O)ncc3Cl)cc21`
1.1

====

# protocolDetails: Phase 1/1b clinical trial: plasma pharmacokinetics of PF-07220060
# Type: in vivo, human
# assayContext: human, plasma, po, 400 mg, 400 mg BID oral monotherapy (Part 1A); C1D15 post multiple doses; median; read-out: Tmax
parameterMeasured: Tmax (h)
Give just the number in h; leave the unit off.

Request the reported Tmax associated with CC(C)n1c(C(C)(C)O)nc2c(F)cc(-c3nc(N[C@@H]4CCOC[C@H]4O)ncc3Cl)cc21 [PF-07220060]
1

====

# protocolDetails: Phase 1/1b clinical trial: plasma pharmacokinetics of PF-07220060
# Format: in vivo, human
# assayContext: human, plasma, po, 400 mg BID oral + fulvestrant (Part 1C); C1D1 post first dose; median; read-out: Tmax
parameterMeasured: Tmax (h)
Give just the number in h; leave the unit off.

Request the reported Tmax associated with CC(C)n1c(C(C)(C)O)nc2c(F)cc(-c3nc(N[C@@H]4CCOC[C@H]4O)ncc3Cl)cc21 [PF-07220060]
2.2
